src = patent US11993599B2

# target-under-test: BRM (Homo sapiens)
# Sequence (P51531 whole entry): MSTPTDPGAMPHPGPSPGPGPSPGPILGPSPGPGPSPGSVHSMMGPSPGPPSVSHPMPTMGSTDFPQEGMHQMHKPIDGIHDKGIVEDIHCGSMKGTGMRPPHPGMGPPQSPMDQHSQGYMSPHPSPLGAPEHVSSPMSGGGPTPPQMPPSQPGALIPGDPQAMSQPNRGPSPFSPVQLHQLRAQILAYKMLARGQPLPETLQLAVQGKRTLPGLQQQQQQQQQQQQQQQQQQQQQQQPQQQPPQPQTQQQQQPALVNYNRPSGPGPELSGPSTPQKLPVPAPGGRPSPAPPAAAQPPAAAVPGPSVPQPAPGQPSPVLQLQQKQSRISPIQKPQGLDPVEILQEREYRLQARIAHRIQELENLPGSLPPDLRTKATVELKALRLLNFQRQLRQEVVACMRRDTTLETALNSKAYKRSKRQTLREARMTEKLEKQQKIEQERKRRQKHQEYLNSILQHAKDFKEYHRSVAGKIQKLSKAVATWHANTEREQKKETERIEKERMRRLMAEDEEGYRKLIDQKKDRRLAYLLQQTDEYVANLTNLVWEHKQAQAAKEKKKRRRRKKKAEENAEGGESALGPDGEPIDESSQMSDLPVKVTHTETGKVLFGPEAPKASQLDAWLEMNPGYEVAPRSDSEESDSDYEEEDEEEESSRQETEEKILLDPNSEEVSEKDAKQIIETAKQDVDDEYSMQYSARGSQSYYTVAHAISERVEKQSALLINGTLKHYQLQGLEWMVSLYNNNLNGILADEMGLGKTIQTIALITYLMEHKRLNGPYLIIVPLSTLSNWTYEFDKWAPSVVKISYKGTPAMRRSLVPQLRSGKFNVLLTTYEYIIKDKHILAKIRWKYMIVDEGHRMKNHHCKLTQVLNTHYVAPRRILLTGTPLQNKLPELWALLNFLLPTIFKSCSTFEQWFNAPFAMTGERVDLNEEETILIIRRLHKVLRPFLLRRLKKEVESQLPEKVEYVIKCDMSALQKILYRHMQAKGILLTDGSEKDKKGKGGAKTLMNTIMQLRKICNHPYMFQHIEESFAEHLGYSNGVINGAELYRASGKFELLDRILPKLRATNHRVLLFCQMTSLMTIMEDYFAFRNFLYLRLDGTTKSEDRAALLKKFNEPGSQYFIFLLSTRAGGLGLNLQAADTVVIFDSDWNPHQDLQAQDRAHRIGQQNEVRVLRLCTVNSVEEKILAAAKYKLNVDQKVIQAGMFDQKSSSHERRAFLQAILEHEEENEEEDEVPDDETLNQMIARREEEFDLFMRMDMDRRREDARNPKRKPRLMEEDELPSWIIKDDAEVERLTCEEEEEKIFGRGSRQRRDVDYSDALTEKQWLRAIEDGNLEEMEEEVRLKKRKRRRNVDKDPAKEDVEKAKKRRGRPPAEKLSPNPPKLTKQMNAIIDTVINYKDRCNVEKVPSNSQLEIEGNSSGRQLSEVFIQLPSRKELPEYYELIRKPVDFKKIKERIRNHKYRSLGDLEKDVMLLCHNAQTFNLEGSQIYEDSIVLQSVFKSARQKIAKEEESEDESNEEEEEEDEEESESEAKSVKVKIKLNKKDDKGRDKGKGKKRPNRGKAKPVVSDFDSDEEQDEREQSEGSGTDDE
# test-details: Immunofluorescence assay for BRM degradation in SW1573 cells
# Type: cell-based
# Parameters: treated overnight at 4° C. with either BRM primary antibody (Cell signaling Cat #11966) or BRG primary antibody; endogenous in cells; host or cells: SW1573
# assay-setup: 20 hours incubation, immunofluorescence mean nuclear signal, read-out: BRM IF Degradation IC50
quantity-name: DC50

| compound | target-under-test | DC50 |
| --- | --- | --- |
| Nc1nnc(-c2ccccc2O)cc1N1CC2CCC(C1)N2c1ccnc(C#CCN2CCC[C@H]2CO)c1 | BRM (Homo sapiens) | < 10 nM |
| Nc1nnc(-c2ccccc2O)cc1N1CC2CCC(C1)N2c1ccnc(C#CCOCCO)c1 | BRM (Homo sapiens) | 10 to 100 nM |
| Nc1nnc(-c2ccccc2O)cc1N1CC2CCC(C1)N2c1ccnc(C#CCN2CCC[C@@H]3OCC[C@@H]32)c1 | BRM (Homo sapiens) | 10 to 100 nM |
| Nc1nnc(-c2ccccc2O)cc1N1CC2CCC(C1)N2c1ccnc(C#CCN2CCC(O)CC2)c1 | BRM (Homo sapiens) | 10 to 100 nM |
| CC[C@@H]1COCCN1CC#Cc1cc(N2C3CCC2CN(c2cc(-c4ccccc4O)nnc2N)C3)ccn1 | BRM (Homo sapiens) | 10 to 100 nM |

Turning to the following compound.
Entry CN(CC#Cc1cc(N2C3CCC2CN(c2cc(-c4ccccc4O)nnc2N)C3)ccn1)C1CCS(=O)(=O)C1 (stereo not drawn) needs its DC50 filled in; supply it.
> 100 nM
